Target System: Delta-type opioid receptor (Rattus norvegicus, UniProt P33533)
Sequence (P33533 whole entry): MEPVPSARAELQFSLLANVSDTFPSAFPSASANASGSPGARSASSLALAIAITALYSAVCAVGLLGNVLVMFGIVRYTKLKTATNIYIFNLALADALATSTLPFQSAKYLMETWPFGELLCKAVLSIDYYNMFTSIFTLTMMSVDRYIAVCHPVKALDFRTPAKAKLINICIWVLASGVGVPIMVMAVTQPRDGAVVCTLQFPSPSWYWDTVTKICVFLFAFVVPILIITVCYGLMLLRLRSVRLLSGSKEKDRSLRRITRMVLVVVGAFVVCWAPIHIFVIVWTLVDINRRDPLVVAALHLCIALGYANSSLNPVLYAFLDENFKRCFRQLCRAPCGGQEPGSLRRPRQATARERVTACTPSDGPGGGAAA
Test Method Notes: Inhibition of [3H]-DADLE binding to Opioid receptor delta 1 of rat brain membranes
Readout Label: Ki (nM)
Numbers only, in nM.

C[C@H]1CN(Cc2cc3ccccc3s2)CC[C@@]1(C)c1cccc(O)c1 :: 1580
C[C@H]1CN(C[C@@H]2C[C@H]2c2ccccc2)CC[C@@]1(C)c1cccc(O)c1 :: 709
Cc1ccccc1/C=C/CN1CC[C@@](C)(c2cccc(O)c2)[C@@H](C)C1 :: 142

Batch of 2 compounds: report Ki for each.
1. C[C@H]1CN(CC[C@H](O)C2CCCCC2)CC[C@@]1(C)c1cccc(O)c1
2. C[C@H]1CN(C/C=C/c2ccccc2Cl)CC[C@@]1(C)c1cccc(O)c1

Result:
1. 198
2. 168

Batch lookup, Ki per entry.
1. C[C@H]1CN(C/C=C\c2ccccc2)CC[C@@]1(C)c1cccc(O)c1
2. C[C@H]1CN(C/C=C/c2ccccc2)CC[C@@]1(C)c1cccc(O)c1

Result:
1. 931
2. 322

Query: If you can, please state the reported Ki value of C[C@H]1CN(Cc2cc3ccccc3o2)CC[C@@]1(C)c1cccc(O)c1 .
Result: 1450

---

Target System: Kappa-type opioid receptor (Cavia porcellus, UniProt P41144)
Sequence (P41144 whole entry): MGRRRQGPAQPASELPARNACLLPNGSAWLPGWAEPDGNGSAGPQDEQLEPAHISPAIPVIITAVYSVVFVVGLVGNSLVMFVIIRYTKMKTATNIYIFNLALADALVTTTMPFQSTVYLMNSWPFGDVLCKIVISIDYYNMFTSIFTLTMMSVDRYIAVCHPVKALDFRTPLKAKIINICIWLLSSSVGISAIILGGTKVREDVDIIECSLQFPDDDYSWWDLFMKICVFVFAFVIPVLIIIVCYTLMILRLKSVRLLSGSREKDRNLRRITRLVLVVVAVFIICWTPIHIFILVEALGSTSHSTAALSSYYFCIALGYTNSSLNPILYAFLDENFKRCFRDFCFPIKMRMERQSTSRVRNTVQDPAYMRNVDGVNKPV
Test Method Notes: Inhibition of [3H]U-69593 binding to Opioid receptor kappa 1 of guinea pig membranes
Output: class label from Ki. Mapping: range A (below 80 nM), range B (80 nM to below 300 nM), range C (300 nM or more)

Consider the following illustrative entries.
Cc1ccccc1/C=C/CN1CC[C@@](C)(c2cccc(O)c2)[C@@H](C)C1 :: range A
C[C@H]1CN(CC[C@H](O)C2CCCCC2)CC[C@@]1(C)c1cccc(O)c1 :: range A

Query: Kindly state the category for this molecule: C[C@H]1CN(Cc2cc3ccccc3s2)CC[C@@]1(C)c1cccc(O)c1
Result: range C

Query: Place this molecule in its band: C[C@H]1CN(Cc2cc3ccccc3o2)CC[C@@]1(C)c1cccc(O)c1
Result: range C

Query: Exam item: assign C[C@H]1CN(C2CCCCC2)CC[C@@]1(C)c1cccc(O)c1 to the correct category.
Result: range C

Query: Lab note: which band did C[C@H]1CN(C2CCCC(O)(c3ccccc3)C2)CC[C@@]1(C)c1cccc(O)c1 (some centres not stated) land in?
Result: range C

---

Target System: Kappa-type opioid receptor (Cavia porcellus, UniProt P41144)
Test Method Notes: The compound was tested for antagonist activity by selective inhibition of [35S]GTP-gamma-S, binding in Guinea pig caudate stimulated by U69,593 to Opioid receptor kappa 1
Assay type: functional
Kindly state Ki for each of the entries shown.
Answers are plain numbers, in nM.

C[C@H]1CN(C/C=C/c2ccccc2Cl)CC[C@@]1(C)c1cccc(O)c1 :: 0.567
C[C@H]1CN(CC[C@H](O)C2CCCCC2)CC[C@@]1(C)c1cccc(O)c1 :: 0.33
C[C@H]1CN(C/C=C/c2ccccc2)CC[C@@]1(C)c1cccc(O)c1 :: 1.04

Query: Given the entry Cc1ccccc1/C=C/CN1CC[C@@](C)(c2cccc(O)c2)[C@@H](C)C1 , report its measured Ki.
Result: 0.17

---

Target System: Mu-type opioid receptor (Cavia porcellus, UniProt P97266)
Sequence (P97266 whole entry): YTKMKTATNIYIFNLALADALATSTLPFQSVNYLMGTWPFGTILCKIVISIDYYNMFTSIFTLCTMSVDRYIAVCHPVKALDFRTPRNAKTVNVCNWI
Test Method Notes: The compound was tested for antagonist activity by selective inhibition of [35S]GTP-gamma-S, binding to Opioid receptor mu 1 in Guinea pig caudate stimulated by DAMGO[mu]
Readout Label: pKi
Numbers only, as −log10 of the molar value.

C[C@H]1CN(CC[C@H](O)C2CCCCC2)CC[C@@]1(C)c1cccc(O)c1 :: 10.68
C[C@H]1CN(C/C=C/c2ccccc2)CC[C@@]1(C)c1cccc(O)c1 :: 10.41

Count: 2. Required value per item: pKi.
1. Cc1ccccc1/C=C/CN1CC[C@@](C)(c2cccc(O)c2)[C@@H](C)C1
2. C[C@H]1CN(C/C=C/c2ccccc2Cl)CC[C@@]1(C)c1cccc(O)c1

Result:
1: 10.89; 2: 10.59
